# test_parameters: [M-H]-; instrument: DT; single field, calibrated with ESI Low Concentration Tuning Mix (Agilent)
outcome_measure: collision cross section (N2) (Å²)

[[record]]
molecule = "CCCCCCCCCCCCCCCCCCCC(=O)O [ARACHIDATE]"
measured_value = 185.1

[[record]]
molecule = "O=c1nc[nH]c2nc[nH]c12"
measured_value = 116.9

[[record]]
molecule = "Nc1ccccc1C(=O)O [ANTHRANILATE]"
measured_value = 125.5

[[record]]
molecule = "NC(=O)CC[C@H](N)C(=O)O"
measured_value = 127.3

[[record]]
molecule = "NC(CSCC(=O)O)C(=O)O (stereo unspecified)"
measured_value = 130

[[record]]
molecule = "CN[C@@H](CCC(=O)O)C(=O)O [N-METHYLGLUTAMATE]"
measured_value = 129.5

[[record]]
molecule = "NCC(N)C(=O)O (stereo unspecified) [2,3-DIAMINOPROPIONATE]"
measured_value = 118.2

[[record]]
molecule = "NC(N)=N[C@@H](CC(=O)O)C(=O)O [GUANIDINOSUCCINATE]"
measured_value = 130.2

[[record]]
molecule = "NC(CO)Cc1cnc[nH]1 (stereo unspecified)"
measured_value = 127.5

[[record]]
molecule = "O=C(O)C(O)COP(=O)(O)O (stereo unspecified) [3-PHOSPHOGLYCERATE]"
measured_value = 124.4

[[record]]
molecule = "NC1(C(=O)[O-])CC1 [1-AMINOCYCLOPROPANECARBOXYLATE]"
measured_value = 135.1

